Hello, the source for this data is patent US8309599B2, in case you need it.

For reference, GI50 measured on MCF-7:
Number first, unit second: that is the form wanted.

Here's what some known entries look like.
# compound, reportedValue
records = [
    ("CC(=O)O[C@@H](C)/C=C\\C(=O)N[C@@H]1C[C@H](C)[C@H](C/C=C(C)/C=C/[C@H]2OC(C)(C)C[C@@]3(CO3)[C@@H]2O)O[C@@H]1C [meayamycin]", "0.01 nM"),
    ("CC(=O)O[C@@H](C)/C=C\\C(=O)N[C@@H]1CC[C@H](C/C=C(C)/C=C/[C@H]2OC(C)(C)C[C@@]3(CO3)[C@@H]2O)O[C@@H]1C [12-desmethyl meayamycin]", "0.3 nM"),
    ("CC(=O)O[C@@H](C)/C=C\\C(=O)N[C@@H]1CO[C@H](C/C=C(C)/C=C/[C@H]2OC(C)(C)C[C@@]3(CO3)[C@@H]2O)O[C@@H]1C [acetal meayamycin]", "2.5 nM"),
]

Could you now look at the following compound, please?
Challenge: Recorded GI50 of CC(/C=C/[C@H]1OC(C)(C)C[C@@]2(CO2)[C@@H]1O)=C\C[C@@H]1O[C@H](C)[C@H](NC(=O)/C=C\[C@H](C)O)C[C@@H]1C [4′-desacetyl meayamycin] , please.
Response given: 0.48 nM
